These entries and their values trace back to PubChem BioAssay (NCI).

Test system: CAKI-1 renal
assay.details: NCI tumour cell line growth inhibition, 48 h
property.name: TGI

{"compound": "COc1ccc(/C=C/C(=O)c2sc(-n3nc(-c4ccccc4)cc3-c3ccccc3)nc2C)cc1", "property.name": "TGI", "assay.result": "> 100 µM"}
{"compound": "CCC(=O)c1c(C(F)(F)F)n([O-])c2cc(F)c(F)cc2[n+]1=O", "property.name": "TGI", "assay.result": "1.03 µM"}
{"compound": "CC(=O)c1c(C)[nH]c(-c2nc3ccc(N4CCN(C)CC4)cc3[nH]2)c1-c1ccccc1", "property.name": "TGI", "assay.result": "12.8 µM"}
{"compound": "COc1cc(C2c3cc4c(cc3OC(NCCO)C2C)OCO4)cc(OC)c1OC (stereo not given)", "property.name": "TGI", "assay.result": "> 54.3 µM"}
{"compound": "Cn1c(N/N=C/c2ccccc2)nc(-c2ccc([N+](=O)[O-])cc2)c(C#N)c1=O", "property.name": "TGI", "assay.result": "> 100 µM"}
{"compound": "O=C(Nc1nc2c(ncn2C2OC(CO)C(O)C2O)c(=O)[nH]1)c1ccccc1 (stereo not given)", "property.name": "TGI", "assay.result": "> 100 µM"}
{"compound": "Nc1ncnc2c1ncn2C1OC(CO)C(O)C1N (stereo not given)", "property.name": "TGI", "assay.result": "> 100 µM"}
{"compound": "C=CCc1cc(OC)c2c(c1)C(OC)CC(c1ccc(OC)c(OC)c1)O2 (stereo not given)", "property.name": "TGI", "assay.result": "> 100 µM"}
{"compound": "c1cc2c(cn1)Nc1ccncc1S2", "property.name": "TGI", "assay.result": "> 100 µM"}
{"compound": "COc1ccc(N(C)c2nc(N)nc3sc4c(c23)CCCC4)cc1", "property.name": "TGI", "assay.result": "15.4 µM"}

----------
Recorded TGI for the following compounds
Test system: LOX IMVI melanoma
assay.details: NCI tumour cell line growth inhibition, 48 h
property.name: TGI (µM)

{"compound": "COc1cccc(/C=C2\\COc3ccc(-c4ccccc4)cc3C2=O)c1", "unit.info": "µM", "comparison.operator": "=", "assay.result": 4.62}
{"compound": "C=CC(=O)N1CC2(CC(n3nc(-c4ccc5c(cnn5C)c4)c(-c4c(Cl)c(C)cc5[nH]ncc45)c3C)C2)C1", "unit.info": "µM", "comparison.operator": "=", "assay.result": 3.55}
{"compound": "CC[C@H](C)[C@H](NC(=O)[C@H]1CCCCN1C)C(=O)N(C)[C@H](C[C@@H](OC(C)=O)c1nc(C(=O)N[C@@H](Cc2ccccc2)C[C@H](C)C(=O)O)cs1)C(C)C", "unit.info": "µM", "comparison.operator": ">", "assay.result": 16.5}
{"compound": "CC(=O)NC(CC(C)C)C(=O)NC(Cc1ccccc1)C(=S)N1CCCC1 (centres undefined)", "unit.info": "µM", "comparison.operator": ">", "assay.result": 100}
{"compound": "C[C@@H]1S[C@H](c2c(Cl)cccc2Cl)N2Cc3ccccc3N=C12", "unit.info": "µM", "comparison.operator": ">", "assay.result": 100}
{"compound": "CC1(c2ccc(Cl)cc2)C2C(=O)NC(=O)C1C(=O)NC2=O (centres undefined)", "unit.info": "µM", "comparison.operator": ">", "assay.result": 100}
{"compound": "COC(=O)[C@H]1CCCN1C(=O)[C@H]1CCCN1C(=O)[C@H](Cc1c[nH]c2ccccc12)NC(=S)Nc1cc(C(F)(F)F)cc(C(F)(F)F)c1", "unit.info": "µM", "comparison.operator": "=", "assay.result": 26.3}
{"compound": "CCn1c(-c2nonc2N)nc2cncc(C(=O)N3CC[C@H](N)C3)c21", "unit.info": "µM", "comparison.operator": ">", "assay.result": 25}
{"compound": "CC(SC(=O)Nc1ccc(N=Nc2ccccc2)cc1)C(=O)O (centres undefined)", "unit.info": "µM", "comparison.operator": ">", "assay.result": 100}
{"compound": "CN(C)c1cccc(NC2=NCCO2)c1", "unit.info": "µM", "comparison.operator": ">", "assay.result": 100}
{"compound": "COc1ccc(C(OCC2OC(n3ccc(NC(=O)c4ccccc4)nc3=O)CC2OP2(=S)SCCS2)(c2ccccc2)c2ccc(OC)cc2)cc1 (centres undefined)", "unit.info": "µM", "comparison.operator": "=", "assay.result": 33.1}
{"compound": "C[Si](C)(C)C1=C([Si](C)(C)C)C(Cl)(Cl)C1=O", "unit.info": "µM", "comparison.operator": "=", "assay.result": 3.51}
{"compound": "CC(C)(C)N(Cc1ccc2c(c1)OCO2)C(=O)/C=C\\Sc1ccccc1", "unit.info": "µM", "comparison.operator": ">", "assay.result": 100}
{"compound": "Cc1cc(=O)[nH]c(NN2C(Cl)C(=O)C2c2cccc(Cl)c2)n1 (centres undefined)", "unit.info": "µM", "comparison.operator": "=", "assay.result": 32.8}

----------
Test system: A498 renal
assay.details: NCI tumour cell line growth inhibition, 48 h
Here the recorded TGI is given for each entry.
property.name: TGI (µM)

{"compound": "Clc1ccc(OCc2nn3c(CCc4nnc5sc(COc6ccc(Cl)cc6)nn45)nnc3s2)cc1", "comparison.operator": "=", "assay.result": 42.8}
{"compound": "C=C1C(=O)OC2/C=C(/C)C(OC(C)=O)C/C=C(\\C)C(OC(=O)C3(C)OC3C)C(O)C12 (stereo not given)", "comparison.operator": ">", "assay.result": 100}
{"compound": "COc1ccccc1C[C@@H]1OC2(C=CC(=O)C=C2)O[C@H]1Cc1ccccc1OC", "comparison.operator": "=", "assay.result": 49.9}
{"compound": "CCSc1c2ccccc2c(-c2nc(F)nc(F)n2)n1CCc1ccccc1", "comparison.operator": ">", "assay.result": 100}
{"compound": "COc1cccc(-c2cc(=O)c3ccccc3[nH]2)c1", "comparison.operator": ">", "assay.result": 100}

----------
Tested on: ACHN renal
assay.details: NCI tumour cell line growth inhibition, 48 h
property.name: TGI

{"compound": "CCOC(=O)C1=COC(C)(CCc2ccccc2)CC1=O (stereo not given)", "assay.result": "> 100 µM"}
{"compound": "O=[N+]([O-])c1ccc(O)c(/C=N/NC(=S)N2CCCCC2)c1", "assay.result": "6.97 µM"}
{"compound": "CCN1CCN(C(=O)[C@]23CCC(C)(C)C[C@@H]2C2=CC[C@@H]4[C@@]5(C)C/C(=C/c6ccncc6)C(=O)C(C)(C)[C@@H]5CC[C@@]4(C)[C@]2(C)CC3)CC1", "assay.result": "2.95 µM"}
{"compound": "CCCCCCC[CH2][Sn]1([CH2]CCCCCCC)[O]C(=O)c2cccnc2[O]1", "assay.result": "> 100 µM"}
{"compound": "CCc1nc(N)nc(N)c1-c1ccc(N2CCNCC2)cc1", "assay.result": "> 100 µM"}

----------
Test system: TK-10 renal
assay.details: NCI tumour cell line growth inhibition, 48 h; in the data active means GI50 below about 0.43 µM; inactive means the rest
Outcomes: active, inactive

{"compound": "CC[C@H](C)[C@H](NC(=O)CN(C)C)C(=O)N(C)[C@H](C[C@@H](OC(C)=O)c1nc(C(=O)NC23CC(C(=O)OC)(C2)C3)cs1)C(C)C", "class.label": "inactive"}
{"compound": "COc1cccc(/C=C2\\COc3ccc(-c4ccccc4)cc3C2=O)c1", "class.label": "inactive"}
{"compound": "CN1CCN(CCCOc2cccc3nc(Nc4ccc(Cl)c(C(F)(F)F)c4)ccc23)CC1", "class.label": "inactive"}
{"compound": "CO[C@H]1C[C@@H]2CC[C@@H](C)[C@@](O)(O2)C(=O)C(=O)N2CCCC[C@H]2C(=O)O[C@H]([C@H](C)C[C@@H]2CC[C@@H](OCCO)[C@H](OC)C2)CC(=O)[C@H](C)C=C(C)[C@@H](O)[C@@H](OC)C(=O)[C@H](C)C[C@H](C)/C=C/C=C/C=C1C", "class.label": "active"}
{"compound": "CCOC(=O)c1cnc2c(C)cccc2c1Nc1ccc(C(C)=O)cc1", "class.label": "inactive"}
{"compound": "COc1cc2cc(Oc3ccc(NC(=O)Nc4ccc(Cl)c(Cl)c4)cc3)c(C)nc2cc1OC", "class.label": "inactive"}
{"compound": "CN1C(=O)C2(c3ccccc31)N(c1ccc(Cl)cc1)C(=O)C2(c1ccccc1)c1ccccc1 (configuration not stated)", "class.label": "inactive"}

----------
Test system: NCI-H23 lung
assay.details: NCI tumour cell line growth inhibition, 48 h; in the data active = GI50 below about 0.43 µM; inactive = the rest
Classes used: class 1 (active), class 0 (inactive)

{"compound": "COc1ccc(N(C)c2nc(N)nc3sc4c(c23)CCCC4)cc1", "class.label": "class 1"}
{"compound": "CC(=O)[O][Hg][c]1c(C)c(C)cc(C)c1C", "class.label": "class 0"}
{"compound": "COc1cc2c(=O)[nH]c3cc([N+](=O)[O-])ccc3c2cc1[N+](=O)[O-]", "class.label": "class 0"}
{"compound": "O=C(CN1C(=O)S/C(=C\\C(Cl)=C\\c2ccccc2)C1=O)NC1C=CS(=O)(=O)C1 (configuration not stated)", "class.label": "class 0"}
{"compound": "Cn1c(-c2c(N)n(CCCN3CCOCC3)c3nc(C#N)c(C#N)nc23)nc2ccccc21", "class.label": "class 0"}
{"compound": "CCN1CCN(C(=O)[C@]23CCC(C)(C)C[C@@H]2C2=CC[C@@H]4[C@@]5(C)C/C(=C/c6ccncc6)C(=O)C(C)(C)[C@@H]5CC[C@@]4(C)[C@]2(C)CC3)CC1", "class.label": "class 0"}
{"compound": "c1cc2c(cn1)Nc1ccncc1S2", "class.label": "class 0"}
